measured_target: BV2443 (recombinant CoV S glycoprotein, Gamma) (SARS-CoV-2, UniProt P0DTC2 14-1273)
method_notes: BLI, antibody on anti-mouse Fc biosensor, rS analyte
measurement_kind: pKd
A value of pKd is the negative decimal logarithm of a concentration given in moles per litre.

Request: Name the reported pKd value associated with the binder 239.12 (antibody, V domains shown) VH: EVKLEESGPVLVKPSQSLSLTCTVTGYSITSDYAWNWIRQFPGNKLEWMGYISNSAGTSYNPSLKSRISITRDTSKNQFFLQLNSVTTEDTATYYCASGGWSSYYAMDYWGQGTSVTVSS VL: DIQMTQSPASLSASVGETVTITCGASENIYGALNWYQRKQGKSPQLLIYGATNLADGMSSRFSGSGSGRQYSLKISSLHPDDVATYYCQNVLSTPYTFGGGTKLEIKR
Response: 11.37

Request: Then what about the binder 322.3 (antibody, V domains shown) VH: RVQLQQSGPELVKPGASVTISCKASGYIFTSDYIHWVKQRPGQGPEWIGWIYPGNINTKYNEKFKGKATLTADKSSSTAYMQLSSLTSEDSAVYFCARDDGNLYYYAMDYWGQGTSVTVSS VL: NIVLTQSPASLAVSLGQRATISCRASESVDSYGSSFMHWYQQKPGQPPKLLIYLASNLESGVPARFSGSGSRTDFTLTIDPVEADDAATYYCQQNNEDPRTFGGGTKLEIK ?
Response: 9.97

Request: Then what about the binder 35.13 (antibody, V domains shown) VH: QVQLQQSGAELGKPGASVKLSCRASGYTFTRYYIYWVKQRPGQGLEWIGEINPSNGDTHFNEKFKTKATLTVDKSSSSAHIHLTSLTSEDSAVYYCSIHAYSFDFWGQGTTLTVSS VL: EIQMTQSPSSMSASLGDRITITCQATQDIVKNLNWYQQKPGKPPSFLIYHATELAKGVPSRFSGSGSGSDYSLTISNLESEDFADYYCLQFYDFPFTFGAGTKLELKR ?
Response: 10.70

All values here come from patent US20250066456A1.
